// values below are reported activation
# System: CXCR3B (Homo sapiens, UniProt P49682)
# Construct: expressed in transfected cells; host or cells: U87 cells
# Sequence (P49682 1-415 isoform P49682-2): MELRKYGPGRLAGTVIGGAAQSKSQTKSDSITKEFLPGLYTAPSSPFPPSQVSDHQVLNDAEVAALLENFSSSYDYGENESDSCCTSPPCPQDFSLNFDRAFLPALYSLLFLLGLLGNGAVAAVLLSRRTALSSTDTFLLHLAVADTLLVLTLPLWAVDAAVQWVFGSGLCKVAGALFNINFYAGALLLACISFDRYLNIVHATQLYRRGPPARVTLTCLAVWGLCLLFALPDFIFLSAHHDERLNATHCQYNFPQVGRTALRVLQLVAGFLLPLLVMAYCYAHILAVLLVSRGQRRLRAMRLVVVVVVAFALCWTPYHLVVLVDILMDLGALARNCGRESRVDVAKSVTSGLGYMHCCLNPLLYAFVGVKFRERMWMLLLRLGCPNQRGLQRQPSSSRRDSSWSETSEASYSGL
# Protocol Details: Figure S2a opioid peptide screen on chemokine receptors
# Type: cell-based
# Design: dose or concentration left out as unconfirmed
# Protocol Conditions: replicate 1, read-out: CXCR3B activity, ctrl+ = 100
Starred links: 1 amine or outer side, 2 acyl side, 3 side chain; linkers in the order of their positions; H or OH if unused. Non-standard residues stand in square brackets, D forms with d. Residues, ends and D or L forms follow the SMILES beside them. X1 = N[C@@H](Cc1ccccc1)CN(CC(=O)[*:2])[*:1]
Quantity: activation (%)

INSERT INTO assay_data (compound, unit_of_measure, val) VALUES
  ('NC(=O)[C@H](Cc1ccccc1)NC(=O)[C@H](Cc1c[nH]c2ccccc12)NC(=O)[C@@H]1CCCN1C(=O)[C@@H](N)Cc1ccc(O)cc1 [Endomorphin-1]', '%', -0.0115),
  ('C[C@H](NC(=O)CNC(=O)[C@@H](NC(=O)[C@H](Cc1ccccc1)NC(=O)CNC(=O)CNC[C@@H](N)Cc1ccccc1)[C@@H](C)O)C(=O)N[C@@H](CCCNC(=N)N)C(=O)N[C@@H](CCCCN)C(=O)N[C@@H](CO)C(=O)N[C@@H](C)C(=O)N[C@@H](CCCNC(=N)N)C(=O)N[C@@H](CCCCN)C(N)=O [FG Nociceptin 1-13] (H-[X1]GFTGARKSARK-NH2)', '%', -0.717),
  ('C[C@H](NC(=O)CNC(=O)[C@@H](NC(=O)[C@H](Cc1ccccc1)NC(=O)CNC(=O)CNC(=O)[C@@H](N)Cc1ccccc1)[C@@H](C)O)C(=O)N[C@@H](CCCNC(=N)N)C(=O)N[C@@H](CCCCN)C(=O)N[C@@H](CO)C(=O)N[C@@H](C)C(=O)N[C@@H](CCCNC(=N)N)C(=O)N[C@@H](CCCCN)C(N)=O', '%', -2.86),
  ('CSCC[C@H](NC(=O)[C@H](Cc1ccccc1)NC(=O)CNC(=O)CNC(=O)[C@@H](N)Cc1ccc(O)cc1)C(=O)N[C@@H](CCCNC(=N)N)C(=O)N[C@@H](CCCNC(=N)N)C(=O)N[C@H](C(N)=O)C(C)C', '%', 3.73),
  ('CC(C)C[C@H](NC(=O)[C@H](CCCCN)NC(=O)[C@H](CCCN=C(N)N)NC(=O)[C@H](C)NC(=O)[C@H](CO)NC(=O)[C@H](CCCCN)NC(=O)[C@H](CCCN=C(N)N)NC(=O)[C@H](C)NC(=O)CNC(=O)[C@@H](NC(=O)[C@H](Cc1ccccc1)NC(=O)CNC(=O)CNC(=O)[C@@H](N)Cc1ccccc1)[C@@H](C)O)C(=O)N[C@@H](C)C(=O)N[C@@H](CC(N)=O)C(=O)N[C@@H](CCC(N)=O)C(=O)O', '%', -0.23);
